In this section we review reported RGS16–Galpha-o binding response values for a set of compounds.
Target: Regulator of G-protein signaling 16 (Homo sapiens) (UniProt O15492)
Test: small molecules altering RGS protein interactions with GNAO1 – biochemical, multiplexed beads, flow cytometry, RGS4/7/8/16/19, primary screen (AID 1504);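 also: fluorescently labeled Galpha-o bound to GDP with aluminium fluoride binding biotinylated RGS beads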
Settings: multiplexed bead flow cytometry, measured here: RGS16 interaction, at 10 µM
Some of the results follow.
Hi! Could you send only the number? It should be in %, unit omitted.

Example compounds with recorded RGS16–Galpha-o binding response:
- COMPOUND: "Cc1cc(C)cc(N(CC(=O)Nc2c(C)n(C)n(-c3ccccc3)c2=O)S(C)(=O)=O)c1"
  UNIT_ABBREVIATION: "%"
  RGS16–Galpha-o binding response: -28.4
- COMPOUND: "CCOc1ccc(NC(=O)CSc2nc3ccccc3c(=O)n2Cc2cccs2)cc1"
  UNIT_ABBREVIATION: "%"
  RGS16–Galpha-o binding response: -1.24
- COMPOUND: "Cc1ccc(OCC(O)CN2CCN(CC(O)COc3ccc(C)cc3Cl)CC2)c(Cl)c1 (centres undefined)"
  UNIT_ABBREVIATION: "%"
  RGS16–Galpha-o binding response: 367

// next entry
Request: Given Cc1ccc(N2C(=O)C3C(c4ccccc4)(C2=O)C3(c2ccccc2)c2ccccc2)cc1 (centres undefined) , respond with its RGS16–Galpha-o binding response.
Result: 13.2

* * *

Target: AP-2 complex subunit beta (Homo sapiens) (UniProt P63010)
Sequence (P63010 whole entry, looked up, one chain of several): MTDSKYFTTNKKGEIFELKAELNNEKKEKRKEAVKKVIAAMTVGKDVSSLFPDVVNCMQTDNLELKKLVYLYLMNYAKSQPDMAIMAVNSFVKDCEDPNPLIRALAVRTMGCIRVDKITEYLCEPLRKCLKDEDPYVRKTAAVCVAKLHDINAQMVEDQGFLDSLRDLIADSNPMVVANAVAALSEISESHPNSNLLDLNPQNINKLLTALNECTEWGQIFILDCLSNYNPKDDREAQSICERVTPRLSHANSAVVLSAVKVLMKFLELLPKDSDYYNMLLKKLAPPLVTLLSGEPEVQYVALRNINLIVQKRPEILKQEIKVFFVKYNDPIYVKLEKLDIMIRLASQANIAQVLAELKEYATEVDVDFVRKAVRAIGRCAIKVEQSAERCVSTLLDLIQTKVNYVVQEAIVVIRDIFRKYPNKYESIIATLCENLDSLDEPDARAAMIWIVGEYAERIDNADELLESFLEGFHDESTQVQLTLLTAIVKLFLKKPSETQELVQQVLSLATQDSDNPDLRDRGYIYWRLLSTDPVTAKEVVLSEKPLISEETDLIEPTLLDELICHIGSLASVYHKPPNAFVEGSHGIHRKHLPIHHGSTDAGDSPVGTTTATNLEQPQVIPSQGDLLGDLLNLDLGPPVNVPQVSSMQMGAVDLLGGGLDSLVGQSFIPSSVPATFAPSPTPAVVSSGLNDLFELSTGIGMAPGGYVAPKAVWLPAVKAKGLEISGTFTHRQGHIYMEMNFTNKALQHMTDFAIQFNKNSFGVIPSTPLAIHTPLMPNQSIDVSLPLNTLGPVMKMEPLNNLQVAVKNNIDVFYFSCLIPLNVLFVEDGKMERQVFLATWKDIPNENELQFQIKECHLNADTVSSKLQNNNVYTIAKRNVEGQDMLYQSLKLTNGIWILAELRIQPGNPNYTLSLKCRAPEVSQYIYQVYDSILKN
Assay: beta-arrestin/AP2 interaction blockers – biochemical, validation set, GST-AP2 beads, flow cytometry, pilot screen (AID 504541);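 also: AP2 carries R879A mutation and is captured from E. coli lysate; bead-bound FITC arrestin peptide fluorescence measuring arrestin peptide binding to AP2; 0% = DMSO wells and 100% = excess unlabeled arrestin peptide control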
Details: FITC arrestin peptide, at 10 µM, stronger effect = higher value, AP2 beta2 appendage fragment, R879A mutant
The source made the active and inactive calls.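 Rule for the calls: active = inhibition above 54%, about 3 SD of non-fluorescent compounds; inactive = the rest.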
READOUT_LABEL: inhibition

- COMPOUND: "NC(N)=NC(N)=Nc1ccc2ccccc2c1"
  READOUT_LABEL: "inhibition"
  RESULT: "16% (inactive)"
- COMPOUND: "O=C(Nc1nc2ccccc2s1)c1ccc(F)cc1"
  READOUT_LABEL: "inhibition"
  RESULT: "-2.74% (inactive)"
- COMPOUND: "COC(=O)c1ccc(C(=O)OC)c(NC(=O)C(C)C)c1"
  READOUT_LABEL: "inhibition"
  RESULT: "-9.41% (inactive)"
- COMPOUND: "Cn1c(=O)[nH]c2nnc(-c3ccc(Cl)c(Cl)c3)nc2c1=O"
  READOUT_LABEL: "inhibition"
  RESULT: "5.98% (inactive)"
- COMPOUND: "Cc1cccc(N2CCN(C(=S)c3ccccc3)CC2)c1"
  READOUT_LABEL: "inhibition"
  RESULT: "-6.82% (inactive)"
- COMPOUND: "CCc1cc2c(C)cc(=O)oc2cc1OC(=O)C1CCCN1C(=O)OC(C)(C)C (stereo not given)"
  READOUT_LABEL: "inhibition"
  RESULT: "-11.6% (inactive)"
- COMPOUND: "OCCN1CCN(CCCN2c3ccccc3Sc3ccc(C(F)(F)F)cc32)CC1"
  READOUT_LABEL: "inhibition"
  RESULT: "13.1% (inactive)"
- COMPOUND: "C#C[C@]1(O)CC[C@H]2[C@@H]3CCc4cc(OC)ccc4[C@H]3CC[C@@]21C"
  READOUT_LABEL: "inhibition"
  RESULT: "31.4% (inactive)"

Then this compound:
Request: State its inhibition: CC(C)CN1CCN(Cc2ccc3ncccc3c2)CC1CCO (stereo not given)
Result: -6.16% (inactive)

* * *

Test: calorie-restriction mimetic ROS inhibitors, yeast – validation compound set, pilot screen (AID 2706);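 also: yeast exposed to compound for one week at 30 degrees C before staining; 100% = mean of all compound wells on the same plate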
Details: S. cerevisiae aging, superoxide DHE fluorescence; at 10 µM; stronger effect = lower value
The following compounds are shown together with reported superoxide response (% of plate) values.
// units = %; emit number, no label

In the examples that follow, each entry is paired with its recorded superoxide response (% of plate).
- COMPOUND: "COc1cccc(CN2C(=O)N(C(C)C)C(N(O)C(=O)NC(C)C)C2(C)C)c1OC (stereo unspecified)"
  superoxide response (% of plate) (%): 84.9
- COMPOUND: "O=C(/C=C/c1ccccc1)c1ccccc1"
  superoxide response (% of plate) (%): 92.2
- COMPOUND: "Fc1ccc(C(c2ccc(F)cc2)N2CCN(C/C=C/c3ccccc3)CC2)cc1"
  superoxide response (% of plate) (%): 108
- COMPOUND: "C[C@@H]1CCC[C@H](C)N1NC(=O)c1ccc(Cl)c(S(N)(=O)=O)c1"
  superoxide response (% of plate) (%): 91.8
- COMPOUND: "COc1cc(CNCCc2ccccc2F)ccc1OCC(=O)N1CCCCC1"
  superoxide response (% of plate) (%): 103

Request: // Input: OCCC1CN(Cc2nc(-c3ccccc3)cs2)CCN1Cc1ccc(F)cc1 (stereo unspecified) . Output its superoxide response (% of plate) only.
Result: 103

Request: Look up superoxide response (% of plate) of "CC(=O)[C@H]1CC[C@H]2[C@@H]3CCC4=CC(=O)CC[C@]4(C)[C@H]3CC[C@]12C" and report it.
Result: 136

Request: // Input: "Cc1coc2cc3oc(=O)c(CCC(=O)O)c(C)c3cc12" . Output its superoxide response (% of plate) only.
Result: 109

Request: # return recorded superoxide response (% of plate) for input "CCOC(=O)c1ccc(NC(=S)NCCc2ccccc2F)cc1"
Result: 98.7

Request: Let me know recorded superoxide response (% of plate) for "O=C(NCCO)c1ccc2[nH]c3ccccc3c2c1" , thanks.
Result: 96.6

Request: Please supply the value of reported superoxide response (% of plate) for the item "CCc1ccc2oc(=O)cc(CN3CCC(C)CC3)c2c1"
Result: 98.9

Request: Provide superoxide response (% of plate) value for the following compound: COc1ccccc1C(CCN(Cc1ccccc1)C(C)=O)c1ccco1 (stereo unspecified)
Result: 122

Request: Report superoxide response (% of plate), nothing else, for this compound: "COc1cc(OC)cc(C(C)=O)c1"
Result: 94.5

* * *

Test system: anti-desmoglein-3 scFv antibody binding to human DSG3
Assay: blockers of pathogenic pemphigus antibody–desmoglein-3 binding – biochemical, validation compound set, bead-based, flow cytometry, pilot screen (AID 588368);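 also: signal is the median channel fluorescence of bead-bound GFP antibody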
Conditions: Protein G beads, DSG3-Fc, scFv-GFP binding, at 10 µM, stronger effect = lower value
The source made the active and inactive calls.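 How the source made its calls: active means binding below the plate cutoff, the plate median minus 3 SD, with a reading above zero; inconclusive means below the plate cutoff but reading exactly zero; inactive means the rest.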
Overview of recorded binding (% of control) for various compounds

Some solved entries appear below for comparison.
- COMPOUND: "CC(C)CCc1noc(CN2CCC(CCN3CCCC3=O)CC2)n1"
  binding (% of control): "95.1% (inactive)"
- COMPOUND: "CS(=O)c1ccccc1O (stereo unspecified)"
  binding (% of control): "101% (inactive)"
- COMPOUND: "CC(C)CN(C)Cc1c(C(=O)N2CCc3ccccc3C2)nc2ccc(Cl)cn12"
  binding (% of control): "104% (inactive)"
- COMPOUND: "COc1ccc(OC)c(S(=O)(=O)N2CCCc3ccccc32)c1"
  binding (% of control): "105% (inactive)"
- COMPOUND: "CCC(=O)Nc1ccc(C(=O)N2CCN(C(=O)c3ccco3)CC2)cc1"
  binding (% of control): "95.5% (inactive)"

Request: With anti-desmoglein-3 scFv antibody binding to human DSG3 as the test system, provide measured binding (% of control) for this compound: "CC1CCN(CCOCCOc2ccccc2Br)CC1"
Result: 95.6% (inactive)

Request: Please report binding (% of control) with anti-desmoglein-3 scFv antibody binding to human DSG3 for item "CC(=O)c1cccc(NC(=O)N[C@@H](CC(C)C)C(=O)O)c1" .
Result: 99.2% (inactive)

Request: # return binding (% of control) for "CC(=O)OC[C@H]1O[C@@H](Sc2cccc3cccnc23)[C@H](OC(C)=O)[C@@H](OC(C)=O)[C@H]1OC(C)=O" , test system: anti-desmoglein-3 scFv antibody binding to human DSG3
Result: 104% (inactive)

* * *

Assay: yeast AGP1-GFP level changes, GLN3 branch – cell-based, multiplex flow cytometry, S. cerevisiae, primary screen (AID 1887);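 also: AGP1-GFP fusion strain of S. cerevisiae within a five-strain barcoded multiplex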
Details: 3 h, at 10 µM, stronger effect = higher value
Inconclusive results are not listed.
The compounds listed here are annotated with their GFP response, % of DMSO.
Could you give me the number in %? Just the number is fine.

Examples with answers:
- COMPOUND: "O=C(Oc1ccc2c3c(c(=O)oc2c1)CCCC3)c1ccco1"
  GFP response, % of DMSO, %: 85
- COMPOUND: "CCc1cccc2c3c([nH]c12)C(CC)(CC(=O)O)OCC3 (stereo not given)"
  GFP response, % of DMSO, %: 100
- COMPOUND: "CC(=O)c1c(C)c(C)c2n1CCn1c(C)ccc1-2"
  GFP response, % of DMSO, %: 107
- COMPOUND: "Cn1cc(CN2CCC(C(=O)N3CCCCC3)CC2)c(-c2ccccc2F)n1"
  GFP response, % of DMSO, %: 94.2
- COMPOUND: "Nc1ccn([C@@H]2O[C@H](CO)[C@@H](O)[C@@H]2O)c(=O)n1"
  GFP response, % of DMSO, %: 111

Request: Read off the recorded GFP response, % of DMSO for COc1cccc(CN2C(=O)N(C(C)C)C(N(O)C(=O)NC(C)C)C2(C)C)c1OC (stereo not given)
Result: 101

Request: Check the records and state GFP response, % of DMSO for "CC1(C)Oc2ccc(C#N)cc2[C@@H](N2CCCC2=O)[C@@H]1O"
Result: 99.1

Request: Identify measured GFP response, % of DMSO corresponding to "CC(=O)[C@H]1CC[C@H]2[C@@H]3CCC4=CC(=O)CC[C@]4(C)[C@H]3CC[C@]12C"
Result: 104

Request: Specify GFP response, % of DMSO for "O=c1[nH]cnc2[nH]ncc12" and stop.
Result: 95

Request: Please give measured GFP response, % of DMSO of the following entry: "COc1ccc2c(c1)[N+](C)(C)C(C)(C)C=C2C"
Result: 99.9
